Value source: patent US20240398783A1

Catalogue of pIC50 readings, one per entry.
Target: TDP-43 binding to purified human brain membranes (Homo sapiens)
Sequence (Q13148 whole entry): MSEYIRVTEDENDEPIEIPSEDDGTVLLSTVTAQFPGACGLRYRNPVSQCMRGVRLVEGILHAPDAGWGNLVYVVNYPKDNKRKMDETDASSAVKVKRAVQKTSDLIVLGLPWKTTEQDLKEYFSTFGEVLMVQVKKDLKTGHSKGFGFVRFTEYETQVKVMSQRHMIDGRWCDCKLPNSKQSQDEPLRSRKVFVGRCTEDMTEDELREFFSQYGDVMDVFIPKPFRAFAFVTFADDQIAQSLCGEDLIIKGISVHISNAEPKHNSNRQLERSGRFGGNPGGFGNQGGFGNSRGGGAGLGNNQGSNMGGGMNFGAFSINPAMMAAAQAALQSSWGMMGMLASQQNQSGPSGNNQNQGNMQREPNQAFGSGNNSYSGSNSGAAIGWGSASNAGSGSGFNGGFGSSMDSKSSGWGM
Test: Inhibition of TDP-43 binding to purified human brain cell membranes (ELISA)
Settings: TDP43/Membrane Activity (IC-50), TDP-43, purified human brain membranes
Description: Purified human brain cell membranes were prepared by differential centrifugation as follows. […] Protein concentration was measured with BCA protein assay kit (Pierce Cat. No. 23227). […] Bound GBAP was detected by a monoclonal antibody specific for that GBAP, followed by incubation with secondary antibody conjugated to horseradish peroxidase (HRP). […] The Optical Density of the samples was measured at 450 nm using an ELISA plate reader (BioTek Synergy H1). […] IC-50s were calculated using GraphPad Prism software. […]
pIC50: −log10 of the molar value. Structures can show the parent of a compound that is named as a salt.
measure: pIC50

>>> print(df.to_string())
                                    compound                               measured_on  reported_result
 0     Clc1ccc2c(Nc3ccc(-n4cncn4)nc3)ccnc2c1  TDP-43 binding to purified human brain membranes (Homo sapiens)             4.58
 1  Cc1ncn(-c2ncc(Nc3ncnc4cc(Cl)ccc34)cc2O)c1C  TDP-43 binding to purified human brain membranes (Homo sapiens)             5.28
 2  C/C(=N\Nc1ncnc2cc(F)ccc12)c1ccc(-n2cc[n+](C)c2)nc1  TDP-43 binding to purified human brain membranes (Homo sapiens)             4.56
 3  C(=N\Nc1ccc2c3c(cccc13)CC2)/c1ccc(-n2ccnc2)cc1  TDP-43 binding to purified human brain membranes (Homo sapiens)             4.60
 4  CC(=NNc1ccnc2cc(Cl)ccc12)c1ccc(-n2ccnc2)cc1 [Compound 36, phosphate]  TDP-43 binding to purified human brain membranes (Homo sapiens)             4.31
 5  C/C(=N\Nc1ncnc2cc(Cl)ccc12)c1ccc(-n2cnc(C)c2C)nc1 [Compound 16, phosphate]  TDP-43 binding to purified human brain membranes (Homo sapiens)             5.68
 6  Clc1ccc2c(N/N=C/c3ccc(-n4cccn4)cc3)ccnc2c1  TDP-43 binding to purified human brain membranes (Homo sapiens)             5.18
 7  CC(=NNc1ccnc2cc(Cl)ccc12)c1ccc(-n2cnc(C)c2C)nc1  TDP-43 binding to purified human brain membranes (Homo sapiens)             4.91
 8  Cc1ncn(-c2ccc(/C=N\Nc3ncnc4cc(Cl)ccc34)cn2)c1C [Compound 15, hydrochloride]  TDP-43 binding to purified human brain membranes (Homo sapiens)             5.52
 9  Fc1ccc2c(N/N=C/c3ccc(-n4ccnc4)cc3)ccnc2c1  TDP-43 binding to purified human brain membranes (Homo sapiens)             4.85
10  C/C(=N\Nc1ncnc2cc(Cl)ccc12)c1ccc(-n2cc[n+](C)c2)nc1  TDP-43 binding to purified human brain membranes (Homo sapiens)             4.65
11  Clc1ccc2c(N/N=C/c3ccc(-n4ccnc4)nc3)ccnc2c1 [Compound 14, hydrochloride]  TDP-43 binding to purified human brain membranes (Homo sapiens)             5.40
12  Fc1cc(/C=N/Nc2ccnc3cc(Cl)ccc23)ccc1-n1ccnc1 [Compound 35, hydrochloride]  TDP-43 binding to purified human brain membranes (Homo sapiens)             4.88
13  Cc1ncn(-c2ccc(Nc3ncnc4cc(Cl)ccc34)cn2)c1C  TDP-43 binding to purified human brain membranes (Homo sapiens)             4.94
14     Clc1ccc2c(Nc3ccc(-n4cncn4)nc3)ncnc2c1  TDP-43 binding to purified human brain membranes (Homo sapiens)             5.44
15  Clc1ccc2c(N/N=C/c3ccc(-n4ccnc4)cc3)ccnc2c1 [Compound 38, dihydrochloride]  TDP-43 binding to purified human brain membranes (Homo sapiens)             5.21
